test: Differential scanning fluorimetry (protein thermal shift; TM1/TM2); type: physicochemical; details: Table 11; melting temperature of the Fab domain
Quantity: TM2 (° C.) (°C)
Answer with a number only, understood to be in °C.

Ask: Quick one: TM2 (° C.) of SRP2196-A10 (antibody, V domains shown) VH: EVQLVESGGGLVQPGGSLRLSCAASGFNITGYYIHWVRQAPGKGLEWVGYISPNSGATHYADSVKGRFTISADISKNTAYLQMNSLRAEDTAVHYCARDSRRYVRSWDYWGQGTLVTVSS VL: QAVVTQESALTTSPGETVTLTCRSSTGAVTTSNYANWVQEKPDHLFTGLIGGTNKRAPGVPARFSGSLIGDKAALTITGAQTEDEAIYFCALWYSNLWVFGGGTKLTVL ?
Result: 68

Ask: Quick one: TM2 (° C.) of SRP2196-C02 (antibody, V domains shown) VH: EVQLVESGGGLVQPGGSLRLSCAASGFNITGYHIHWVRQAPGKGLEWVGFISPNSGWTYSADSVKGRFTISADTSKNTAYLQMNSLRAEDTAVYYCARDSRRYVRPFDYWGQGTLVTVSS VL: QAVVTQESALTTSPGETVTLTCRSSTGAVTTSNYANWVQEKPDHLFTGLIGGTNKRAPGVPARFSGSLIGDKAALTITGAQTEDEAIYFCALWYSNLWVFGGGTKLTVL ?
Result: 67

Ask: Quick one: TM2 (° C.) of SRP2196-B08 (antibody, V domains shown) VH: EVQLVESGGGLVQPGGSLRLSCAASGFNITGYYIHWVRQAPGKGLEWVGQISPNSGYTYLADSVKGRFTISADTSKNTAYLQMNSLRAEDTAVYYCARDSRRYVRGWDYWGQGTLVTVSS VL: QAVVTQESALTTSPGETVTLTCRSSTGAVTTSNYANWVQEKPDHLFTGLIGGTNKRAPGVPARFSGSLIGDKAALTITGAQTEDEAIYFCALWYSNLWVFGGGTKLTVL ?
Result: 75
